AC50 values by entry
system: K562; assay: Induction of apoptosis in human K562 cells after 48 hrs by annexinV and propidium iodide staining based flow cytometry; assay type: functional, cell-based; conditions: K562, 48 h
The answer is to be given in µM; state only the numeric part.

Consider the reported AC50 for these molecules:
1. COc1cc2oc(C(=O)c3cc(OC)c(OC)c(OC)c3)cc2cc1NC(=O)CI: 2
2. O=C(CI)Nc1c(C(=O)c2ccccc2)oc2ccccc12: 5.9

Turning now to a further molecule:
Q: Param item = `COc1cc(C(=O)c2cc3cc(NC(=O)CI)cc(OC)c3o2)cc(OC)c1OC` ; retrieve measured AC50.
Result: 2.2

----------
biological target: Tubulin (Bos taurus, UniProt Q6B856+Q862L2+Q862F3); test: Inhibition of bovine brain tubulin polymerization by spectrophotometry
endpoint-name: IC50 (µM)
The answer is to be given in µM; state only the numeric part.

Consider the reported IC50 for these molecules:
1. COc1cc(C(=O)c2c(NC(=O)CI)c3cccc(OC)c3n2C)cc(OC)c1OC: 2
2. COc1ccc2c(NC(=O)CI)c(C(=O)c3cc(OC)c(OC)c(OC)c3)oc2c1: 1.8

Turning now to a further molecule:
Q: Param item = `COc1cc(C(=O)c2sc3c(C)cccc3c2NC(=O)CI)cc(OC)c1OC` ; retrieve measured IC50.
Result: 1.1

----------
Target: Signal transducer and activator of transcription 5A (Homo sapiens) (UniProt P42229)
Sequence (whole entry): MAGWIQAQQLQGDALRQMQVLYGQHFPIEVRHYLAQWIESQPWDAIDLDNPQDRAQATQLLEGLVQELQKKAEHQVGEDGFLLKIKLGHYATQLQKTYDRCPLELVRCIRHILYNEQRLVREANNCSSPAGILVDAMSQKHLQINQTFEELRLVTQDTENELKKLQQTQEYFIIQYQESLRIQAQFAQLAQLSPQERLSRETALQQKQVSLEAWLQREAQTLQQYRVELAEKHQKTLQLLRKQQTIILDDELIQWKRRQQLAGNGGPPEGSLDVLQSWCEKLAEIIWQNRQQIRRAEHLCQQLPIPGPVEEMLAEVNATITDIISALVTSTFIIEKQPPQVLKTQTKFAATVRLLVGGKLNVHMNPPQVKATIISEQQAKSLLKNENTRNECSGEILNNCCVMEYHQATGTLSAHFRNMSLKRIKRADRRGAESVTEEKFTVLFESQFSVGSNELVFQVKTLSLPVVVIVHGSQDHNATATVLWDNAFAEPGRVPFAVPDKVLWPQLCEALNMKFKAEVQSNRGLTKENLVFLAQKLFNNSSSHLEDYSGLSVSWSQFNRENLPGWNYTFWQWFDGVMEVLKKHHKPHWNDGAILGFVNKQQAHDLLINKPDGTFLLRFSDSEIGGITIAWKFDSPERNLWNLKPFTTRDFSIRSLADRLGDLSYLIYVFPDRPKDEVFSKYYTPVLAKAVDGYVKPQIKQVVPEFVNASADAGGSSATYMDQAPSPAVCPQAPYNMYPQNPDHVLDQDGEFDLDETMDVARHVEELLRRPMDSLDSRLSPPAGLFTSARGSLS
Assay: Inhibition of STAT5 phosphorylation in human K562 cells at 2 uM after 24 hrs by flow cytometry (reference value: 315.56)
Format: cell-based
Param label: returns y when Flu intensity < 200, returns n otherwise, including exact equality.

// known answers, use as guide
1. COc1cc(C(=O)c2cc3cc(NC(=O)CI)ccc3s2)cc(OC)c1OC: n
2. COc1cc(C(=O)c2c(NC(=O)CI)c3cccc(OC)c3n2C)cc(OC)c1OC: y
3. COc1cc(C(=O)c2cc3cc(NC(=O)CI)ccc3o2)cc(OC)c1OC: n
4. COc1cc2oc(C(=O)c3cc(OC)c(OC)c(OC)c3)cc2cc1NC(=O)CI: n

Now turn to the next compound.
Q: Field: below-cutoff. Rule: recorded Flu intensity strictly less than 200. Subject: `COc1cc(C(=O)c2cc3c(NC(=O)CI)cccc3o2)cc(OC)c1OC`
Result: n
